Exercise: state measured cell viability for each of the compounds provided.
- Test system: SEM cells
- testMethodNotes: cell viability relative to DMSO control; higher = less cytotoxic
- testParameters: RPMI 5 mM glucose + 10% FBS; 48 h; 0.00234 µM
Response body: numeric value in %, unit text excluded.

Name the recorded cell viability of the compound listed here: CC[C@H]1OC(=O)[C@H](C)[C@@H](O[C@H]2C[C@@](C)(OC)[C@@H](O)[C@H](C)O2)[C@H](C)[C@@H](O[C@@H]2O[C@H](C)C[C@H](N(C)C)[C@H]2O)[C@](C)(OC)C[C@@H](C)C(=O)[C@H](C)[C@@H](O)[C@]1(C)O
102

In one line, give reported cell viability of the entry CO[C@H]1CCC(O[C@H]2C[C@H]([C@]3(C)CC[C@]4(C[C@H](O)[C@@H](C)[C@@H]([C@@H](C)/C=C(\C)C(=O)[C@H](C)C[C@H](C)C(=O)[O-])O4)O3)O[C@]3(O[C@@H]([C@H]4O[C@@](O)(CO)[C@H](C)C[C@@H]4C)C[C@@H]3C)[C@@H]2C)O[C@@H]1C (stereo partly specified) .
119

Recall and state the measured cell viability for C/C1=C2/[N]3[Co+]456([OH])<-[N]7=C1[C@@H](CCC(N)=O)C(C)(C)/C7=C/C1=[N]->4C(=C(/C)C4=[N]->5[C@@](C)([C@H]3[C@H](CC(N)=O)[C@@]2(C)CCC(=O)NC[C@@H](C)OP(=O)([O-])O[C@H]2[C@@H](O)[C@@H](n3c[n]->6c5cc(C)c(C)cc53)O[C@@H]2CO)[C@@](C)(CC(N)=O)[C@@H]4CCC(N)=O)/[C@@](C)(CC(N)=O)[C@@H]1CCC(N)=O .
116

Identify measured cell viability corresponding to COc1ccccc1[C@H](c1cccc2ccccc12)[C@@](C)(C#N)C(=O)N1CCC(c2cccc(C(F)(F)F)c2)CC1
104

Return value of cell viability for input OC[C@H]1O[C@H](C[C@@H]1O)N2/C=C(C(=O)NC2=O)/C(F)(F)F , no commentary.
104

Specify reported cell viability for the compound shown: Cc1ccc(Nc2cc(-c3cccc(N4C(=O)c5ccccc5C4=O)c3)ncn2)cc1N[S+](C)(=O)[O-]
95.8

Item Cc1cc(Nc2cc(N3CCN(C)CC3)nc(/C=C/c3ccccc3)n2)n[nH]1 : provide cell viability
108

Identify the reported cell viability for the following entry. C[C@@H]1CC[C@@]2(CC[C@]3(C)\C(=C/C[C@@H]4[C@@]5(C)CC[C@H](O)C(C)(C)[C@@H]5CC[C@@]34C)[C@@H]2[C@H]1C)C(O)=O
101

Retrieve cell viability measured for CCCN[C@H]1CCc2nc(N)sc2C1 and print it.
39.1

Tell me measured cell viability for Cc1cc(Nc2ncc3c(n2)N(C)C(=O)N(c2cc(NC(=O)c4cccc(C(F)(F)F)c4)ccc2C)C3)n(C)n1 please.
114

For the compound CC(C)c1onc(-c2c(Cl)cccc2Cl)c1COc1ccc(/C=C/c2cccc(C(=O)O)c2)c(Cl)c1 , give its reported cell viability.
119

----------
Assignment: determine reported cell viability for the given compounds.
- Tested on: SEM cells
- testMethodNotes: cell viability relative to DMSO control; higher = less cytotoxic
- testParameters: HPLM + 10% dialyzed FBS; 48 h; 1.71 µM
Answer format: number, then unit.

Provide measured cell viability on SEM cells for CN1C(=O)/C(=C(NC2=CC=C(I)C=C2F)\C3=C1\N=C/N(C[C@@H](O)CO)C3=O)F please.
59.6%

Jot down cell viability (SEM cells) of Cc1nc(-c2ccc(OCC(C)C)c(C#N)c2)sc1C(=O)O .
108%

Consider the compound Cc1c(N)nc([C@H](CC(N)=O)NC[C@@H](N)C(N)=O)nc1C(=O)N[C@H](C(=O)N[C@@H](C)[C@H](O)[C@@H](C)C(=O)N[C@@H](C(=O)NCCc1nc(-c2nc(C(=O)NCCC[S+](C)C)cs2)cs1)[C@@H](C)O)C(O[C@H]1O[C@H](CO)[C@H](O)[C@@H](O)[C@H]1O[C@H]1O[C@H](CO)[C@@H](O)[C@H](OC(N)=O)[C@@H]1O)c1c[nH]cn1 (stereo partly drawn) tested on SEM cells; state its cell viability.
82.9%

Retrieve cell viability on SEM cells; query O=C(c1cncc(Br)c1)N1CCC(N2CCCC2)CC1
107%

Give the observed cell viability of O=C(O)CCCCCC(=O)NN=C1CCCC1 for SEM cells.
117%

State measured cell viability of the compound CCCCc1ccc2[nH]c(NC(=O)OC)nc2c1 with SEM cells.
23.8%

// output cell viability; input Clc2cccc(Cl)c2\N=C1/NCCN1 ; system SEM cells
108%

Write down measured cell viability (SEM cells) for this compound. COc1cc2c(cc1OC)[C@@H]1Cc3ccc(OC)c(OC)c3CN1CC2
122%

The reported measurements were obtained from the supplement of paper PMC11451515.
